Recorded values, source patent US20130053410A1.

Can you tell me pIC50 for the items I'm about to list?
Measurement target: interaction between p53 and MDM2 proteins (recombinant GST-tagged MDM2, biotinylated p53 peptide) (Homo sapiens)
Sequence (Q00987 whole entry): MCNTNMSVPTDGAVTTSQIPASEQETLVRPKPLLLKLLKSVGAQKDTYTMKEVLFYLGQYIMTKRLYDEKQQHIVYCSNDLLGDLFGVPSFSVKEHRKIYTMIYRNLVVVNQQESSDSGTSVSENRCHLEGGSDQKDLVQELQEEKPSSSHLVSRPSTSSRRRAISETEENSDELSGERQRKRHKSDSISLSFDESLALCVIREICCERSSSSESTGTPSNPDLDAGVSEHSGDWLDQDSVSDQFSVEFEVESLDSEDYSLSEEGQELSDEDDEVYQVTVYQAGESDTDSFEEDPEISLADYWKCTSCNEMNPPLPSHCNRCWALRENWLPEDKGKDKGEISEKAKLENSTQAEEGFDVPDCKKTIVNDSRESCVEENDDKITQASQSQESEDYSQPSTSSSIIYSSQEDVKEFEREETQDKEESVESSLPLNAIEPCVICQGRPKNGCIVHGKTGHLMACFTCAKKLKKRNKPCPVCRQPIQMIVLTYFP
Assay details: HTRF assay of inhibition of the p53-MDM2 interaction
Conditions: bsa: 0.02%
Description: The ability of the compounds to inhibit the interaction between p53 and MDM2 proteins was measured by an HTRF (homogeneous time-resolved fluorescence) assay in which recombinant GST-tagged MDM2 binds to a peptide that resembles the MDM2-interacting region of p53. […]
Field pIC50 (float): negative decimal logarithm of the concentration in molar.

[ask] Given "COc1cc(C(N)=O)ccc1N1C(=O)[C@H]2[C@H](c3cccc(Cl)c3F)[C@]3(C(=O)Nc4cc(Cl)ncc43)[C@H](CC(C)(C)C)N2[C@@H]1CO" , state its recorded pIC50.
[reply] 8.02

[ask] Also COc1cc(C(=O)O)ccc1N1CN2[C@@H](CC(C)(C)C)[C@@]3(C(=O)Nc4cc(C)ncc43)[C@@H](c3cccc(Cl)c3F)[C@@H]2C1=O (racemic) ?
[reply] 6.99

[ask] Also "COc1cc(C(N)=O)ccc1N1C(=O)[C@H]2[C@H](c3cccc(Cl)c3F)[C@]3(C(=O)Nc4cc(Cl)ncc43)[C@H](CC(C)(C)C)N2[C@@H]1CCC1CCOCC1" ?
[reply] 8.12

[ask] Also COc1cc(C(=O)O)ccc1N1CN2[C@@H](CC(C)(C)C)[C@@]3(C(=O)Nc4ccncc43)[C@@H](c3cccc(Cl)c3F)[C@@H]2C1=O (racemic) ?
[reply] 6.10

[ask] Also "COc1cc(C(N)=O)ccc1N1C(=O)[C@H]2[C@H](c3cccc(Cl)c3F)[C@]3(C(=O)Nc4cc(Cl)ncc43)[C@H](CC(C)(C)C)N2[C@@H]1C" ?
[reply] 8.12

[ask] Also COc1cc2c(cn1)[C@@]1(C(=O)N2)[C@H](CC(C)(C)C)N2CN(c3ccc(C(N)=O)cc3OC)C(=O)[C@H]2[C@@H]1c1cccc(Cl)c1F (racemic) ?
[reply] 7.82

[ask] Also COc1cc(C(=O)O)ccc1N1CN2[C@@H](CC(C)(C)C)[C@@]3(C(=O)Nc4cc(C)cnc43)[C@@H](c3cccc(Cl)c3F)[C@@H]2C1=O (racemic) ?
[reply] 7.66

[ask] Also "CC[C@@H]1N(c2ccc(C(N)=O)cc2OC)C(=O)[C@H]2[C@H](c3cccc(Cl)c3F)[C@]3(C(=O)Nc4cc(Cl)ncc43)[C@H](CC(C)(C)C)N12" ?
[reply] 8.15

[ask] Also COc1cc2c(cn1)[C@@]1(C(=O)N2)[C@H](CC(C)(C)C)N2CN(c3ccc(C(=O)O)cc3OC)C(=O)[C@H]2[C@@H]1c1cccc(Cl)c1F (racemic) ?
[reply] 7.64

[ask] Also COc1cc(C(=O)O)ccc1N1CN2[C@@H](CC(C)(C)C)[C@@]3(C(=O)Nc4ncccc43)[C@@H](c3cccc(Cl)c3F)[C@@H]2C1=O (racemic) ?
[reply] 7.02

[ask] Also COc1cc(C(N)=O)ccc1N1CN2[C@@H](CC(C)(C)C)[C@@]3(C(=O)Nc4nc(Cl)ccc43)[C@@H](c3cccc(Cl)c3F)[C@@H]2C1=O (racemic) ?
[reply] 7.71

[ask] Also "COc1cc(C(N)=O)ccc1N1CN2[C@@H](CC(C)(C)C)[C@@]3(C(=O)Nc4cc(Cl)ncc43)[C@@H](c3cccc(Cl)c3F)[C@@H]2C1=O" ?
[reply] 8.17

[ask] Also COc1cc(C(N)=O)ccc1N1CN2[C@@H](CC(C)(C)C)[C@]3(C(=O)Nc4cc(C)ncc43)[C@@H](c3cccc(Cl)c3F)[C@@H]2C1=O (racemic) ?
[reply] 5.94

[ask] Also COc1cc(C(N)=O)ccc1N1CN2[C@@H](CC(C)(C)C)[C@@]3(C(=O)Nc4cc(C)ncc43)[C@@H](c3cccc(Cl)c3F)[C@@H]2C1=O (racemic) ?
[reply] 7.05

[ask] Also COc1cc(C(=O)O)ccc1N1CN2[C@@H](CC(C)(C)C)[C@@]3(C(=O)Nc4nc(Cl)ccc43)[C@@H](c3cccc(Cl)c3F)[C@@H]2C1=O (racemic) ?
[reply] 7.82
